Target: serum sample IHUS#B09032311A3 (pre-existing antibodies against ISV)
Experiment: ECL drug displacement assay, variant as competitor against labelled SEQ ID NO:1
The label is 1 for % reduction below 40% and -1 for % reduction equal to or exceeding 40%.

Ask | Is % reduction strictly under 40% for the entry Example 1c: (A14P, R39Q, K83R,T91Y, Q108L) (VHH) VHH: EVQLVESGGGLVQPGGSLRLSCAASGRTFNNYAMGWFRQAPGKEREFVAAITRSGVRSGVSAIYGDSVKDRFTISRDNAKNTLYLQMNSLRPEDTAVYYCAASAIGSGALRRFEYDYSGQGTLVTVSS ?
Reply | -1

Ask | Is % reduction strictly under 40% for the entry Example 1C: (Q108L) (VHH) VHH: EVQLVESGGGLVQAGGSLRLSCAASGRTFNNYAMGWFRRAPGKEREFVAAITRSGVRSGVSAIYGDSVKDRFTISRDNAKNTLYLQMNSLKPEDTAVYTCAASAIGSGALRRFEYDYSGQGTLVTVSS ?
Reply | 1

Ask | Does this binder meet the criterion % reduction < 40%? Example 1C: (A14P, R39Q, K83R, T91Y, Q108L)-QA (VHH) VHH: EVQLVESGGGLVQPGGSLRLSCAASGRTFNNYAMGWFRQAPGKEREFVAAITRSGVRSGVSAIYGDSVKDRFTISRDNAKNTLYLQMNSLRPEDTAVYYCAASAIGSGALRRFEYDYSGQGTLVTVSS
Reply | 1
